SYSTEM NAME: GLP-1R (Homo sapiens, UniProt P43220)
Sequence (P43220 24-463): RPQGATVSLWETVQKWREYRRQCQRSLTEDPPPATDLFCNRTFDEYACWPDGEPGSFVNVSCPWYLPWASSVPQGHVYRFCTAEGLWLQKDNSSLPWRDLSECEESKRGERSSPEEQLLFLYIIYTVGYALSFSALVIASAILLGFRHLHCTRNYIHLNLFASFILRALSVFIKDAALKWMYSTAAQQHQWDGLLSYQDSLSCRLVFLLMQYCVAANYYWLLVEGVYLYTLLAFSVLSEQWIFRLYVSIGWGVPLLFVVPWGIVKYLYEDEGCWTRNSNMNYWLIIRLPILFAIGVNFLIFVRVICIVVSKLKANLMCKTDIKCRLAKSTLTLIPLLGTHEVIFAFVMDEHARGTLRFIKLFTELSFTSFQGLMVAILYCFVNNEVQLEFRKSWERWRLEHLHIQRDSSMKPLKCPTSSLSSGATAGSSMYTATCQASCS
PROTOCOL: GLP-1R agonist cAMP stimulation assay (HTRF cAMP)
EXPERIMENTAL CONTEXT: HEK293 cell line expressing GLP-1 target; HTRF cAMP agonist mode, 30 min at RT
Description: cAMP Detection Kit, Cisbio (Cat #62AM4PEJ) The cell line was constructed by WuXi. 2. Methods • a) The compound source plate preparation: • The reference 7-37 was diluted from 500 nM, 4-fold, 10 points in DMSO using Bravo. […]
pEC50: −log10 of the molar value.
Use 9 as the dividing line for pEC50, with the line itself on the Satisfied side and lower values as Not satisfied.

Record excerpt, results attached:
| MOLECULE | SYSTEM NAME | CATEGORY LABEL |
| --- | --- | --- |
| Cc1cc(NC(=O)c2ccc3c(n2)nc(CN2CC=C(c4cccc(OCc5ccc(Cl)cc5F)n4)CC2)n3C[C@@H]2CCO2)cc2cn[nH]c12 | GLP-1R (Homo sapiens, UniProt P43220) | Not satisfied |
| CCn1cncc1Cn1c(Cc2c(F)cc(-c3cccc4c3OC(C)(c3ccc(Cl)cn3)O4)cc2F)nc2cc(NC(=O)c3cc(F)c4[nH]nc(C)c4c3)ccc21 (stereo not shown) | GLP-1R (Homo sapiens, UniProt P43220) | Satisfied |
| Cc1n[nH]c2c(C)cc(C(=O)Nc3ccc4c(c3)nc(C(F)(F)N3CC=C(c5cccc(OCc6ccc(Cl)cc6F)n5)CC3)n4C[C@@H]3CCO3)cc12 | GLP-1R (Homo sapiens, UniProt P43220) | Not satisfied |
| O=C(Nc1ccc2c(c1)nc(CN1CC=C(c3cccc(OCc4ccc(Cl)cn4)n3)CC1)n2C[C@@H]1CCO1)c1ccc2[nH]c(=O)[nH]c2c1 | GLP-1R (Homo sapiens, UniProt P43220) | Satisfied |
| O=C(N[C@@H](Cc1cnc[nH]1)C(=O)O)c1ccc2c(c1)nc(CN1CCC(c3cccc(OCc4ccc(Cl)cc4F)n3)CC1)n2C[C@@H]1CCO1 | GLP-1R (Homo sapiens, UniProt P43220) | Not satisfied |
| O=C(Nc1ccc2nc(CN3CC=C(c4cccc(OCc5ccc(Cl)cc5F)n4)CC3)n(C[C@@H]3CCO3)c2c1)c1cc(F)c2c(c1)C1(CC1)C(=O)N2 | GLP-1R (Homo sapiens, UniProt P43220) | Satisfied |

QUERY: Decide: is the reported value of pEC50 for Cc1cc(NC(=O)c2ccc3c(c2)nc(CN2CCC(c4cccc5c4OC(C)(c4ccc(Cl)cc4F)O5)CC2)n3C[C@@H]2CCO2)cc2c1NC(=O)C21CC1 (stereo partly shown) equal to or greater than 9?
RESULT: Satisfied

QUERY: Identify whether the reported pEC50 of the following molecule is 9 or greater: Cc1nc2cccc(COc3cccc(C4CCN(Cc5nc6cc(C(=O)Nc7ccc8[nH]nc(C)c8c7)ccc6n5C[C@@H]5CCO5)CC4)n3)c2s1
RESULT: Not satisfied

QUERY: Does the reported pEC50 for Cc1cc(NC(=O)c2ccc3c(c2)nc(CN2CC=C(c4cccc5c4OC(C)(c4ccc(Cl)cc4F)O5)CC2)n3C[C@@H]2CCO2)cc2c1NC(=O)C21CC1 (stereo partly shown) fall at or above the 9 mark?
RESULT: Satisfied

QUERY: State whether the measured pEC50 reaches 9, counting equality as reaching it, for Cc1n[nH]c2c(C)cc(NC(=O)c3cc4c(nc(CN5CC=C(c6cccc(OCc7ccc(Cl)cc7F)n6)CC5)n4C[C@@H]4CCO4)s3)cc12
RESULT: Not satisfied
